The origin of these recorded values is the METLIN SMRT retention time set (Domingo-Almenara et al. 2019).

- assay comment: gradient 5% acetonitrile 3 min, to 50% in 2 min, to 85% in 15 min, held 3 min, 100 µL/min
- experimental parameters: column: Zorbax Extend-C18 2.1 x 50 mm; eluents: water / acetonitrile, 0.1% formic acid
measurement name: RP-LC retention time (s)

Check out these entries, answers already filled in.
INSERT INTO measurements (molecule, observed) VALUES
  ('CC(C)CN1Cc2c(nc3ccccc3c2C(=O)N2CCC(C)CC2)C1=O', 834),
  ('COc1cccc(C(=O)N2CCc3c(c(-c4nc(C5CC5)no4)nn3C)C2)c1', 800),
  ('O=C(NC1CCN(Cc2ccccc2)CC1)C1CCN(c2ncnc3c2oc2ccccc23)CC1', 603);

(P) Cc1noc(C)c1-c1ccc(S(=O)(=O)NCc2ccccc2)cc1
(Q) C=C[C@H]1CN2CC[C@H]1C[C@H]2[C@H](O)c1ccnc2ccc(OC)cc12
Hi there! Just curious which has the higher RP-LC retention time between P and Q . Please identify the chosen entry by its label. P
(P: 916 s, Q: 592 s)
